Every entry's value here was drawn from patent US20230293526A1.

- System: cancer cell lines
- measurement_description: Cancer cell proliferation activity of representative nucleosides, CellTiterGlo 72 h (Example 7, Tables 8 and 9)
- Format: cell-based
- assay_context: Homo sapiens, BT-20, 72 h, BT20, 72 h (Table 9)
observation_type: IC50 (µM)

[P] C#C[C@]1(CO)O[C@@H](n2cnc3c(N)nc(F)nc32)C[C@@H]1O [Islatravir (EFdA), Islatravir, reference compound]
[Q] Nc1ccn([C@H]2C[C@H](O)[C@](CO)(CF)O2)c(=O)n1
Lookup: Hi team, can someone confirm which has the larger IC50: P or Q ? Thanks. Please indicate the selected item by its label.
Found: P

---

- Test system: cancer cell lines
- measurement_description: Cancer cell proliferation activity of representative nucleosides, CellTiterGlo 72 h (Example 7, Tables 8 and 9)
- Format: cell-based
- assay_context: Homo sapiens, A2780, 72 h, A2780, ovary, 72 h
pIC50: −log10 of the molar value.
observation_type: pIC50

C#C[C@]1(CO)O[C@@H](n2ccc(N)nc2=O)C[C@@H]1O
5.57
C#C[C@]1(CO)O[C@@H](n2cnc3c(=O)[nH]c(N)nc32)C[C@@H]1O
4.81

[I] C[C@]1(CO)O[C@@H](n2ccc(N)nc2=O)C[C@@H]1O
[II] N#C[C@]1(CO)O[C@@H](n2ccc(N)nc2=O)C[C@@H]1O
[III] C#C[C@]1(CO)O[C@@H](n2cc(F)c(N)nc2=O)C[C@@H]1O
Lookup: Sort low-to-high on pIC50, please. Please write the labels in the order that was asked for.
Found: III, II, I
(III: 5.38, II: 6.19, I: 6.60)
